Tested on: Zika virus NS2B-NS3 protease
MEASUREMENT DESCRIPTION: Primary screen GU AMC qHTS for Zika virus inhibitors (AID 1347154); note: nearly all actives have a fitted effect of over 70% in size
EXPERIMENTAL CONDITIONS: Zika NS2B-NS3 unlinked protease, AMC fluorogenic substrate; series mostly up to 54.1 µM
Results filed as inconclusive are left out. The source made the active and inactive calls. Calls come from the whole dose curve; as a rule, active = well fitted inhibition curve with a large enough effect; inconclusive = small, poorly fitted or top-dose-only effect; inactive = flat fitted curve, though single readings scatter.
MEASUREMENT TYPE: outcome

> print(dat)
                                   compound            measurement.target    result
1  CC(C(=O)O)c1ccc2c(c1)CC(=O)c1ccccc1S2 (stereo unspecified)  Zika virus NS2B-NS3 protease  inactive
2                           NNC(=O)c1ccncc1  Zika virus NS2B-NS3 protease  inactive
3  O=C(N[C@H](CO)[C@H](O)c1ccc([N+](=O)[O-])cc1)C(Cl)Cl  Zika virus NS2B-NS3 protease  inactive
4          O=S(=O)(c1cccc2cnccc12)N1CCCNCC1  Zika virus NS2B-NS3 protease  inactive
5           NC(=O)N1c2ccccc2CC(=O)c2ccccc21  Zika virus NS2B-NS3 protease  inactive

As a next step, examine the compound that follows.
Entry C[C@@H](CN1CC(=O)NC(=O)C1)N1CC(=O)NC(=O)C1 has what outcome? inactive

###

System: DIV17
MEASUREMENT DESCRIPTION: qHTS profiling for inhibitors of Plasmodium falciparum proliferation (AID 504749); note: nearly all actives have a fitted effect of over 60% in size
EXPERIMENTAL CONDITIONS: P. falciparum in erythrocytes, SYBR Green DNA, 72 h; series mostly up to 28.7 µM
Protocol: NIH National Institute of Allergy and Infectious Diseases [NIAID] NIH Chemical Genomics Center [NCGC] […] Because mature erythrocytes lack DNA, only Plasmodium-derived DNA is detected. NCGC Assay Protocol Summary: The SYBR Green viability assay was adapted from a method described previously (Plouffe et al., 2008). […] The following morning, fluorescence intensity at 485(14) nm excitation and 535(25) nm emission wavelengths was measured on an EnVision (Perkin Elmer) plate reader. […]
Records with an inconclusive call do not appear. Calls of active or inactive are those of the source. Calls come from the whole dose curve; as a rule, active = well fitted inhibition curve with a large enough effect; inconclusive = small, poorly fitted or top-dose-only effect; inactive = flat fitted curve, though single readings scatter.
Result category, one only: active, inactive

Recorded test outcome, item CN1CCCC(n2nc(Cc3ccc(Cl)cc3)c3ccccc3c2=O)CC1 (configuration not stated) active

Recorded test outcome, item Cc1cccc(Nc2ccncc2S(=O)(=O)NC(=O)NC(C)C)c1 inactive

Recorded test outcome, item CCCCCCNC(=O)n1cc(F)c(=O)[nH]c1=O active

Recorded test outcome, item CCc1c2c(nc3ccc(OC(=O)N4CCC(N5CCCCC5)CC4)cc13)-c1cc3c(c(=O)n1C2)COC(=O)[C@]3(O)CC inactive

Recorded test outcome, item NC(N)=NC(N)=NCCc1ccccc1 inactive

Recorded test outcome, item CCCN[C@H]1CCc2nc(N)sc2C1 inactive

Recorded test outcome, item COc1cnc(NS(=O)(=O)c2ccc(N)cc2)nc1 inactive

Recorded test outcome, item CCCCOc1ccc(CC(=O)NO)cc1 active

Recorded test outcome, item CC(C)(Sc1cc(C(C)(C)C)c(O)c(C(C)(C)C)c1)Sc1cc(C(C)(C)C)c(O)c(C(C)(C)C)c1 inactive

Recorded test outcome, item O=c1cc(O)c(Cl)c[nH]1 inactive

Recorded test outcome, item C[C@@H](NCCCc1cccc(C(F)(F)F)c1)c1cccc2ccccc12 active

Recorded test outcome, item CCc1cc(C(N)=S)ccn1 inactive
